These data points were gathered from ChEMBL document CHEMBL1671813.

Molecular target: P2X purinoceptor 7 (Rattus norvegicus, UniProt Q64663)
Sequence (Q64663 whole entry): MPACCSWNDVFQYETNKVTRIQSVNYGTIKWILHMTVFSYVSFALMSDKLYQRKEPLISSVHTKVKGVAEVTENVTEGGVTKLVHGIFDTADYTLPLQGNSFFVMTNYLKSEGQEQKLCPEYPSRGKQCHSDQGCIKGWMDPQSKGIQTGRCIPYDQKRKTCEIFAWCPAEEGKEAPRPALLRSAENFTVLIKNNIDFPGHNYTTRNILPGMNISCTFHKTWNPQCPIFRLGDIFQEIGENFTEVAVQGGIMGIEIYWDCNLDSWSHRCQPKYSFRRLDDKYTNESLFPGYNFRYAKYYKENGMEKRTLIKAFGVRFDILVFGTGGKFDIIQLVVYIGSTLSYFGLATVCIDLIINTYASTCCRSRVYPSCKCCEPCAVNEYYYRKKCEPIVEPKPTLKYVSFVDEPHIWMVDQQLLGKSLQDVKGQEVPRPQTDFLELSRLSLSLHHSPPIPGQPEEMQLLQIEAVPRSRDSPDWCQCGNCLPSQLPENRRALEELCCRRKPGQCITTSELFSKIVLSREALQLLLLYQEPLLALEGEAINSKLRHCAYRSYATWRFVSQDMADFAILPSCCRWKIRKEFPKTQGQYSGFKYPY
Test: Antagonist activity against rat P2X7 receptor expressed in Xenopus laevis oocyte assessed as inhibition of […] inward current by two-electrode voltage-clamp electrophysiology
Assay endpoint: IC50

Consider the compound Nc1c(S(=O)(=O)O)cc(Nc2ccc(S(=O)(=O)O)c(Nc3nc(Cl)nc(Cl)n3)c2)c2c1C(=O)c1ccccc1C2=O and give its recorded IC50.
> 10 µM

====

test: Selectivity ratio of IC50 for rat P2X2 receptor to IC50 for rat P2X1 receptor
Assay endpoint: IC50

Specify reported IC50 for the compound shown: Nc1c(S(=O)(=O)O)cc(Nc2ccc(S(=O)(=O)O)c(Nc3nc(Cl)nc(Cl)n3)c2)c2c1C(=O)c1ccccc1C2=O
6.2 nM

====

molecular target: P2X purinoceptor 2 (Rattus norvegicus, UniProt P49653); assay: Antagonist activity against rat P2X2 receptor expressed in Xenopus laevis oocyte assessed as inhibition of ATP-induced inward current by two-electrode voltage-clamp electrophysiology
Sequence (P49653 whole entry): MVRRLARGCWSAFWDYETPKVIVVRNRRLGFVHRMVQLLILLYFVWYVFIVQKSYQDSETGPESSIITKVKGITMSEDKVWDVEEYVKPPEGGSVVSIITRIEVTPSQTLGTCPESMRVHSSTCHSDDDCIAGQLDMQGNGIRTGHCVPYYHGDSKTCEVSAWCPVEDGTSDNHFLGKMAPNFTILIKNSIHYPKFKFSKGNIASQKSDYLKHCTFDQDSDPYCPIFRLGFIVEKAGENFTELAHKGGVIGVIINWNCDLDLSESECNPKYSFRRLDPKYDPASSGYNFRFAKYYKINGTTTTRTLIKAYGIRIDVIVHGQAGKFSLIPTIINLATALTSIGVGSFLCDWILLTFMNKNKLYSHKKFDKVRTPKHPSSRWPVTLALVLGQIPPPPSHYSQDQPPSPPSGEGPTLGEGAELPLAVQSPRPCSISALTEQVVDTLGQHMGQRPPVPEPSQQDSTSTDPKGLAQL
pIC50: −log10 of the molar value.
Please note: y applies when pIC50 is 6 or greater, and n applies otherwise.

# Smiles input, Class label
measured = [
    ("Nc1c(S(=O)(=O)O)cc(Nc2cccc3ccccc23)c2c1C(=O)c1ccccc1C2=O", "n"),
    ("Nc1c(S(=O)(=O)O)cc(Nc2cccc(F)c2)c2c1C(=O)c1ccccc1C2=O", "n"),
    ("COc1ccccc1Nc1cc(S(=O)(=O)O)c(N)c2c1C(=O)c1ccccc1C2=O", "n"),
    ("Nc1c(S(=O)(=O)O)cc(Nc2ccc(O)cc2)c2c1C(=O)c1ccccc1C2=O", "y"),
]

Can CCc1cccc(Nc2cc(S(=O)(=O)O)c(N)c3c2C(=O)c2ccccc2C3=O)c1 be said to have pIC50 at or above 6?
n

Would you say Nc1c(S(=O)(=O)O)cc(Nc2cc(F)cc(F)c2)c2c1C(=O)c1ccccc1C2=O shows pIC50 at minimum 6?
n

Does the compound Cc1cccc(Nc2cc(C)c(N)c3c2C(=O)c2ccccc2C3=O)c1 have recorded pIC50 that is 6 or more?
n

# check: pIC50 of Nc1c(S(=O)(=O)O)cc(Nc2ccccc2S(=O)(=O)O)c2c1C(=O)c1ccccc1C2=O is greater than or equal to 6
n

State whether the measured pIC50 reaches 6, counting equality as reaching it, for Nc1c(S(=O)(=O)O)cc(Nc2ccc(Nc3nc(Cl)nc(Nc4ccccc4S(=O)(=O)O)n3)c(S(=O)(=O)O)c2)c2c1C(=O)c1ccccc1C2=O
n

Threshold query (pIC50 >= 6) on Nc1c(S(=O)(=O)O)cc(Nc2ccc(Nc3nc(Cl)nc(Cl)n3)cc2)c2c1C(=O)c1ccccc1C2=O
y

Is the recorded value of pIC50 equal to or greater than 6 for this compound? Nc1c(S(=O)(=O)O)cc(Nc2cccc([N+](=O)[O-])c2)c2c1C(=O)c1ccccc1C2=O
n

// inclusive: pIC50 at least 6? input: COc1nc(Cl)nc(Nc2ccc(Nc3cc(S(=O)(=O)O)c(N)c4c3C(=O)c3ccccc3C4=O)cc2S(=O)(=O)O)n1
y

Evaluate COc1ccc(Nc2cc(S(=O)(=O)O)c(N)c3c2C(=O)c2ccccc2C3=O)cc1 : pIC50 at minimum 6?
n
